test: Binding affinity to hair pin DNA ODN2 5'-XGCCAGTGCGGCTTTTGCCGCACTGGC-3' (unknown origin) by surface plasmon resonance analysis
pKd: −log10 of the molar value.
Recorded metric: pKd

INSERT INTO measurements (given_smiles, measured_value) VALUES
  ('CN(C)CCCNC(=O)CCNC(=O)c1cc(NC(=O)c2nc(NC(=O)c3cc(NC(=O)c4nc(NC(=O)CCCNC(=O)c5cc(NC(=O)c6nc(NC(=O)CCNC(=O)c7nc(NC(=O)CCNC(=O)CCN)cn7C)cn6C)cn5C)cn4C)cn3C)cn2C)cn1C', 7.05),
  ('CN(C)CCCNC(=O)CCNC(=O)c1cc(NC(=O)c2nc(NC(=O)CCNC(=O)c3nc(NC(=O)CCCNC(=O)c4cc(NC(=O)c5nc(NC(=O)CCNC(=O)c6nc(NC(=O)CCNC(=O)CCN)cn6C)cn5C)cn4C)cn3C)cn2C)cn1C', 7.96);

1. CN(C)CCCNC(=O)CCNC(=O)c1cc(NC(=O)c2nc(NC(=O)CCNC(=O)c3nc(NC(=O)CCCNC(=O)c4cc(NC(=O)c5nc(NC(=O)c6cc(NC(=O)c7nc(NC(=O)CCNC(=O)CCN)cn7C)cn6C)cn5C)cn4C)cn3C)cn2C)cn1C
2. CN(C)CCCNC(=O)CCNC(=O)c1cc(NC(=O)c2nc(NC(=O)c3cc(NC(=O)c4nc(NC(=O)CCCNC(=O)c5cc(NC(=O)c6nc(NC(=O)c7cc(NC(=O)c8nc(NC(=O)CCNC(=O)CCN)cn8C)cn7C)cn6C)cn5C)cn4C)cn3C)cn2C)cn1C
q: Which value of pKd is numerically greater: that of 1 or that of 2 ? Give the label of your selection.
a: 1
(1: 7.96, 2: 4.17)
